Provenance of the data: patent US20240239875A1

- study_system: SARS-CoV-2 prefusion stabilized trimer protein (WIV02 isolate spike protein) (UniProt P0DTC2 14-1213)
- procedure_summary: ELISA
observation_type: EC50 (nM)
The reply should contain only the number, in nM.

// below: answered binders
• 7-N20-A (antibody, V domains shown) VH: QVQLVETGGGLVRPGNSLKLSCVTSGFTFSNYRMHWLRQPPGKRLEWIGIITDKSDNYGANYAESVKGRFAISRDDSKSSVYLEMKRLREEDTATYFCSRDGYDWYFDLWGTGTTVTVSS VL: DIVMTQSHKFMSTSVGDRVRITCKASQDVGIVVAWYQQKPGQSPKLLIYWASTRHTGVPDRFTGSGSGTDFTLTISNVQSEDLADYFCQQYSSYPTFGGGTKLEIK = 0.24
• 4-A15-A (antibody, V domains shown) VH: QVQLQQSGAELVKPGASVKISCKASGNAFSSYWMNWVKQRPGKGLEWIGQIYPGDGDTNFNGRFKGKATLTADISSTTAYMLLSSLTSEDSAVYFCASGGYGSSYERDFDYWGQGTTLTVSS VL: DIQMNQSPSSLSASLGDTITITCHASQNINVWLSWYQQKPGNIPKLLIYKASNLHTGVPSRFSGSGSGTGFTLTISSLQPEDIATYYCQQGHSYPLTFGGGTKLEIK = 0.33

Could you now look at the following binder, please?
Enquiry: Need EC50, item 6-L8-A (antibody, V domains shown) VH: EVQLQQSVAELVRPGASVKLSCTPSGFNIKNTYMHWMKQRPEQGLEWIGRINPANDDTKYAPKFQDKATITADTSSNTAYLQLSSLTSEDTAIYYCVYDVRWYFDVWGTGTTVTVSS VL: DVVMTQTPLSLPVSLGDQASISCRSSQGLVHSNGNTYLHWYLQKPGQSPKLLIYKVSNRFSGVPDRFSGSGSGTDFTLKISRVEAEDLGVYFCSQSTHVPPTFGAGTKLELK
Return: 7.46
